Give measured solubility for each item. Keep answers brief.
assay text: Water solubility
Type: physicochemical
The response must be a number in µM with no trailing unit.

// field: solubility; key: C/C(=N\Nc1nc2cc(F)c(F)cc2n1C)c1ncccn1 ; value = 22.8

// field: solubility; key: C/C(=N\N=c1/[nH]c2cc(F)c(F)cc2n1C)c1ccc(F)cn1 ; value = 3.8

---

Give measured Cmax for each item. Keep answers brief.
assay text: Full pharmacokinetic profile, IV and oral, CD-1 mice
Format: in vivo
condition info: male, CD-1, mouse, plasma, po, 10 mg/kg
For clarity, give the value followed by its unit.

// field: Cmax; key: C/C(=N\Nc1nc2cc(F)c(F)cc2n1C)c1ncccn1 ; value = 1140 nM

// field: Cmax; key: C/C(=N\N=c1/[nH]c2cc(F)c(F)cc2n1C)c1ccc(F)cn1 ; value = 2740 nM

Where do these numbers come from? They come from paper PMC11105966.
